Test system: A549 cells
Assay: Cancer cell viability assay (resazurin), A549
Format: cell-based
Settings: Homo sapiens, A549, A549, 100 μM, two independent experiments; read-out: percentage cell viability
The entries below come with measured viability at 100 µM values attached.
Returns: string containing the numeric result and its unit.

Study these solved cases before continuing.
• Cc1cc(C)n(-c2cc(F)c(CC(=O)Nc3noc4c3CCCC4)c(F)c2)n1 [compound 8] = 32.8%
• Cc1[nH]c(Br)nc1-c1ccc(CC(=O)Nc2noc3c2CCCC3)cc1 [compound 21] = 23.9%
• Cc1nc(-c2ccc(CC(=O)Nc3noc4c3CCCC4)nc2)c(C)[nH]1 [compound 22] = 79.4%
• Cc1nc(-c2ccc(CC(=O)Nc3noc4c3CCCC4)c(F)c2)c(C)[nH]1 [compound 20] = 35%
• Cc1nn(-c2ccc(CC(=O)Nc3noc4c3CCCC4)cc2)c2ccc(N)cc12 [compound 14] = 28.3%

*Q* Tell me the measured viability at 100 µM of O=C(Cc1ccc(-n2nc(Cl)c3ccccc32)cc1)Nc1noc2c1CCCC2 [compound 12] , please.
*A* 12.3%

*Q* Tell me the measured viability at 100 µM of Cc1nc(-c2cc(F)c(CC(=O)Nc3noc4c3CCCC4)c(F)c2)c(C)[nH]1 [compound 23] , please.
*A* 60.6%

Origin of the recorded values: paper PMC11836371
